- Test system: HUVEC
- experimental.protocol: Inhibitory activity against VLA-4 mediated adhesion to human vein endothelial cells
- Assay type: functional, cell-based
property: IC50
Numeric answer plus unit only.

Query :: Requested read-out: IC50. Entry: CN(C)C(=O)Oc1ccc(C[C@H](NC(=O)[C@H]2N(S(=O)(=O)c3ccn(C)n3)CSC2(C)C)C(=O)O)cc1
Result :: 6 nM

###

- experimental.protocol: Solubility in SIBLM buffer system
- Assay type: physicochemical
property: log10 of solubility (log10 of the value in µg/mL)
A value of 2 here means solubility of 100 in µg/mL, since values are log10.

Some solved entries appear below for comparison.
# smiles.string, log10 of solubility
data = [
    ("CN(C)C(=O)Oc1ccc(C[C@H](NC(=O)[C@H]2N(S(=O)(=O)c3ccn(C)n3)CSC2(C)C)C(=O)OCC(C)(C)C)cc1", 0.84),
    ("CCOC(=O)[C@H](Cc1ccc(OC(=O)N(C)C)cc1)NC(=O)[C@H]1N(S(=O)(=O)c2ccn(C)n2)CSC1(C)C", 3.07),
    ("CN(C)C(=O)Oc1ccc(C[C@H](NC(=O)[C@H]2N(S(=O)(=O)c3ccn(C)n3)CSC2(C)C)C(=O)OCOC(=O)C(C)(C)C)cc1", 2.08),
    ("CC(C)OC(=O)[C@H](Cc1ccc(OC(=O)N(C)C)cc1)NC(=O)[C@H]1N(S(=O)(=O)c2ccn(C)n2)CSC1(C)C", 2.20),
    ("CN(C)C(=O)Oc1ccc(C[C@H](NC(=O)[C@H]2N(S(=O)(=O)c3ccn(C)n3)CSC2(C)C)C(=O)OCCOc2ccccc2)cc1", 1.38),
]

# batch size: 2; output log10 of solubility per entry
1. COCCOCCOC(=O)[C@H](Cc1ccc(OC(=O)N(C)C)cc1)NC(=O)[C@H]1N(S(=O)(=O)c2ccn(C)n2)CSC1(C)C
2. CN(C)C(=O)Oc1ccc(C[C@H](NC(=O)[C@H]2N(S(=O)(=O)c3ccn(C)n3)CSC2(C)C)C(=O)O)cc1

Result ::
3.67
4.30

###

- experimental.protocol: Solubility in SGF buffer system
- Assay type: physicochemical
Please go through the items and note down their solubility.

Some solved entries appear below for comparison.
# smiles.string, solubility
measured = [
    ("CN(C)C(=O)Oc1ccc(C[C@H](NC(=O)[C@H]2N(S(=O)(=O)c3ccn(C)n3)CSC2(C)C)C(=O)OCOC(=O)C(C)(C)C)cc1", "13 µg/mL"),
    ("CN(C)C(=O)Oc1ccc(C[C@H](NC(=O)[C@H]2N(S(=O)(=O)c3ccn(C)n3)CSC2(C)C)C(=O)OCC(C)(C)C)cc1", "0.334 µg/mL"),
    ("CCOC(=O)[C@H](Cc1ccc(OC(=O)N(C)C)cc1)NC(=O)[C@H]1N(S(=O)(=O)c2ccn(C)n2)CSC1(C)C", "629 µg/mL"),
]

Each compound below has a recorded value; state its solubility.
1. CC(C)OC(=O)[C@H](Cc1ccc(OC(=O)N(C)C)cc1)NC(=O)[C@H]1N(S(=O)(=O)c2ccn(C)n2)CSC1(C)C
2. CN(C)C(=O)Oc1ccc(C[C@H](NC(=O)[C@H]2N(S(=O)(=O)c3ccn(C)n3)CSC2(C)C)C(=O)O)cc1
3. COCCOCCOC(=O)[C@H](Cc1ccc(OC(=O)N(C)C)cc1)NC(=O)[C@H]1N(S(=O)(=O)c2ccn(C)n2)CSC1(C)C

Result ::
1. 94.9 µg/mL
2. 3300 µg/mL
3. 2830 µg/mL

###

- experimental.protocol: Log Doctanol value by HPLC peak area analysis of aqueous and octanol phases at pH 6.5
- Type: physicochemical
- experimental.context: octanol/aqueous phase, read-out: LogD6.5
Please go through the items and note down their logD.

Sample answers from the record:
# smiles.string, property, reported.value
records = [
    ("CC(C)OC(=O)[C@H](Cc1ccc(OC(=O)N(C)C)cc1)NC(=O)[C@H]1N(S(=O)(=O)c2ccn(C)n2)CSC1(C)C", "logD", 2.47),
    ("COCCOCCOC(=O)[C@H](Cc1ccc(OC(=O)N(C)C)cc1)NC(=O)[C@H]1N(S(=O)(=O)c2ccn(C)n2)CSC1(C)C", "logD", 1.42),
    ("CN(C)C(=O)Oc1ccc(C[C@H](NC(=O)[C@H]2N(S(=O)(=O)c3ccn(C)n3)CSC2(C)C)C(=O)OCOC(=O)C(C)(C)C)cc1", "logD", 3.17),
    ("CN(C)C(=O)Oc1ccc(C[C@H](NC(=O)[C@H]2N(S(=O)(=O)c3ccn(C)n3)CSC2(C)C)C(=O)OCCOc2ccccc2)cc1", "logD", 3.34),
]

Now, please, on to the next compound.
Query :: Param item = CCOC(=O)[C@H](Cc1ccc(OC(=O)N(C)C)cc1)NC(=O)[C@H]1N(S(=O)(=O)c2ccn(C)n2)CSC1(C)C ; retrieve measured logD.
Result :: 2

###

For each entry below, report its logD value.
- experimental.protocol: Log Doctanol value by HPLC peak area analysis of aqueous and octanol phases at pH 4.5-6.5
- Format: physicochemical
- experimental.context: octanol/aqueous phase, read-out: logD
Answers are plain numbers.

# smiles.string, reported.value
measured = [
    ("CN(C)C(=O)Oc1ccc(C[C@H](NC(=O)[C@H]2N(S(=O)(=O)c3ccn(C)n3)CSC2(C)C)C(=O)OCC(C)(C)C)cc1", 3.43),
]

Let us move to another entry and its logD.
Query :: Tell me the measured logD of COCCOCCOC(=O)[C@H](Cc1ccc(OC(=O)N(C)C)cc1)NC(=O)[C@H]1N(S(=O)(=O)c2ccn(C)n2)CSC1(C)C , please.
Result :: 1.41

###

- experimental.protocol: Solubility in SIF buffer system
- Type: physicochemical
property: solubility (µg/mL)
Numbers only, in µg/mL.

# smiles.string, solubility, µg/mL
measured = [
    ("COCCOCCOC(=O)[C@H](Cc1ccc(OC(=O)N(C)C)cc1)NC(=O)[C@H]1N(S(=O)(=O)c2ccn(C)n2)CSC1(C)C", 2400),
]

For each of the items listed, what is its solubility?
1. CC(C)OC(=O)[C@H](Cc1ccc(OC(=O)N(C)C)cc1)NC(=O)[C@H]1N(S(=O)(=O)c2ccn(C)n2)CSC1(C)C
2. CN(C)C(=O)Oc1ccc(C[C@H](NC(=O)[C@H]2N(S(=O)(=O)c3ccn(C)n3)CSC2(C)C)C(=O)OCCOc2ccccc2)cc1
3. CCOC(=O)[C@H](Cc1ccc(OC(=O)N(C)C)cc1)NC(=O)[C@H]1N(S(=O)(=O)c2ccn(C)n2)CSC1(C)C

Result ::
45.5
0.506
341

###

- experimental.protocol: Permeability in Caco-2 assay at 10E-6
- Assay type: ADME
- experimental.context: human, read-out: Activity
Fulfilled means recorded Papp is 5 ×10⁻⁶ cm/s or above; Not fulfilled means it is below 5 ×10⁻⁶ cm/s.

Past entries and their recorded results:
# smiles.string, assigned.category
data = [
    ("CN(C)C(=O)Oc1ccc(C[C@H](NC(=O)[C@H]2N(S(=O)(=O)c3ccn(C)n3)CSC2(C)C)C(=O)OCC(C)(C)C)cc1", "Not fulfilled"),
    ("CCOC(=O)[C@H](Cc1ccc(OC(=O)N(C)C)cc1)NC(=O)[C@H]1N(S(=O)(=O)c2ccn(C)n2)CSC1(C)C", "Not fulfilled"),
    ("CC(C)OC(=O)[C@H](Cc1ccc(OC(=O)N(C)C)cc1)NC(=O)[C@H]1N(S(=O)(=O)c2ccn(C)n2)CSC1(C)C", "Fulfilled"),
    ("CN(C)C(=O)Oc1ccc(C[C@H](NC(=O)[C@H]2N(S(=O)(=O)c3ccn(C)n3)CSC2(C)C)C(=O)OCCOc2ccccc2)cc1", "Fulfilled"),
    ("COCCOCCOC(=O)[C@H](Cc1ccc(OC(=O)N(C)C)cc1)NC(=O)[C@H]1N(S(=O)(=O)c2ccn(C)n2)CSC1(C)C", "Not fulfilled"),
]

Query :: Decide: is the reported value of Papp for CN(C)C(=O)Oc1ccc(C[C@H](NC(=O)[C@H]2N(S(=O)(=O)c3ccn(C)n3)CSC2(C)C)C(=O)OCOC(=O)C(C)(C)C)cc1 equal to or greater than 5 ×10⁻⁶ cm/s?
Result :: Not fulfilled

###

- experimental.protocol: Log Doctanol value by HPLC peak area analysis of aqueous and octanol phases at pH 4.5
- Assay type: physicochemical
- experimental.context: octanol/aqueous phase
Provide the recorded logD for the entries that follow.
One number for each entry.

Example results:
# smiles.string, logD
rows = [
    ("CCOC(=O)[C@H](Cc1ccc(OC(=O)N(C)C)cc1)NC(=O)[C@H]1N(S(=O)(=O)c2ccn(C)n2)CSC1(C)C", 2.27),
    ("CC(C)OC(=O)[C@H](Cc1ccc(OC(=O)N(C)C)cc1)NC(=O)[C@H]1N(S(=O)(=O)c2ccn(C)n2)CSC1(C)C", 2.45),
    ("CN(C)C(=O)Oc1ccc(C[C@H](NC(=O)[C@H]2N(S(=O)(=O)c3ccn(C)n3)CSC2(C)C)C(=O)OCCOc2ccccc2)cc1", 3.21),
]

Could you now consider this next compound?
Query :: Please give the measured logD for this compound: CN(C)C(=O)Oc1ccc(C[C@H](NC(=O)[C@H]2N(S(=O)(=O)c3ccn(C)n3)CSC2(C)C)C(=O)OCOC(=O)C(C)(C)C)cc1
Result :: 3.1
